# method_description: Pharmacokinetics of VCD stereoisomers in plasma after single oral dose of racemic valnoctamide to healthy subjects
# Type: in vivo, human
# study_conditions: Mean ± SD of seven healthy subjects; single oral 400 mg racemic VCD
The following compounds are shown together with reported MRT values.
The answer is to be given in h; state only the numeric part.

Some solved cases for reference:
[
  {
    "compound": "CCC(C)C(CC)C(N)=O (single isomer, unassigned; stereoisomer d) [Stereoisomer D]",
    "MRT / h": 15
  },
  {
    "compound": "CCC(C)C(CC)C(N)=O (single isomer, unassigned; stereoisomer b) [Stereoisomer B]",
    "MRT / h": 8
  },
  {
    "compound": "CCC(C)C(CC)C(N)=O (single isomer, unassigned; stereoisomer c) [Stereoisomer C]",
    "MRT / h": 15
  }
]

Note: attention shifts to another entry.
For the compound CCC(C)C(CC)C(N)=O (single isomer, unassigned; stereoisomer a) [Stereoisomer A] , what MRT is on record?
15

----------
// values below are reported t½
# method_description: Pharmacokinetics of VCD stereoisomers in plasma after repeated oral dosing of racemic valnoctamide to epileptic patients
# Assay type: in vivo, human
# study_conditions: Mean ± SD of six epileptic patients; repeated oral racemic VCD 200 mg tid, last day
Note: unit h is implicit; provide only the numeric part.

Would you please look over these solved cases?
[
  {
    "compound": "CCC(C)C(CC)C(N)=O (single isomer, unassigned; stereoisomer d) [Stereoisomer D]",
    "t½, h": 3.2
  },
  {
    "compound": "CCC(C)C(CC)C(N)=O (single isomer, unassigned; stereoisomer b) [Stereoisomer B]",
    "t½, h": 2.2
  }
]

Looking for the measured t½ of CCC(C)C(CC)C(N)=O (single isomer, unassigned; stereoisomer c) [Stereoisomer C] , can you help?
2.9

Please do the same for CCC(C)C(CC)C(N)=O (single isomer, unassigned; stereoisomer a) [Stereoisomer A] as well.
2.8

meta.source: patent US6417399B1
